# assayed.system: Beta-secretase 1 (Homo sapiens, UniProt P56817)
# Sequence (P56817 whole entry, the tested form may be a part): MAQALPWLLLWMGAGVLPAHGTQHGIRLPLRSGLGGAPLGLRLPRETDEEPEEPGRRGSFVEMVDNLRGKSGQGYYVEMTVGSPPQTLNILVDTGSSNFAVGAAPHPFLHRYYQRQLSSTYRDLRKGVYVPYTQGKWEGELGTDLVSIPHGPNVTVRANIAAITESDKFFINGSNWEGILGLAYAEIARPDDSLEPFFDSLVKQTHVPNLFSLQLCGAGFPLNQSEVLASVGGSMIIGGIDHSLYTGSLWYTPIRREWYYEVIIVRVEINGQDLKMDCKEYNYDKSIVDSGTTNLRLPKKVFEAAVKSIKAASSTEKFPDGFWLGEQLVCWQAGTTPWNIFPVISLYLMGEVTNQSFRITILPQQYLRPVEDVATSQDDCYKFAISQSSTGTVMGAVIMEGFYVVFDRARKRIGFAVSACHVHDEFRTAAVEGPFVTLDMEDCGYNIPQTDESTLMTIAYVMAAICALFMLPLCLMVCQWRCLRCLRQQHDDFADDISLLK
# protocol: Fluorescence Quench Assay: The inhibitory activity of compounds was assessed by a fluorescence quench assay of BACE1 activity using commercially available substrate HiLyte Fluor 488-[…](QXLT 520)-OH (SEQ ID NO:1) AnaSpec, San Jose, Calif.) and truncated human beta-secretase, BACE1 (amino acids 1-454) fused to a myc-his tag and secreted from HEK293/BACEect. cells into OptiMEM (Invitrogen). The substrate was dissolved at 1 mg/ml in DMSO.The assay was performed in the presence of OptiMEM (supernatant collected over 24 h and cleared from cellular debris by centrifugation) containing the ectodomain of BACE1, 25 ul water containing the desired 2-fold concentration of test compound and 2% DMSO, 1 uM substrate peptide, 20 mM NaOAc, pH 4.4, and 0.04% Triton-X100 in a total assay volume of 50 ul in a 384 well plate. In general, 25 ul of compound dilution were given to the plate followed by the addition of 10 ul of BACE1 containing OptiMEM diluted 1:10 in water.
quantity: IC50

[Q] Which IC50 value belongs to CO[C@H]1CC[C@@]2(Cc3ccc(C#N)cc3[C@]23N=C(N)N(Cc2ncccn2)C3=O)C[C@@H]1C ?
[A] 11 nM
